The reported numbers originate from the kinase profiling compilation of Christmann-Franck et al. (2016).

The entries below are paired with their reported residual activity.
- Assayed Target: TBK1 (human)
- Assay Method Text: radiometric filter-binding kinase assay
- Recorded Conditions: compound 10.0 µM
Result Type: residual activity (%)

>  <Compound>
COC(=O)/C=C/C(=O)OC

>  <Unit Abbrev>
%

>  <Observed Measurement>
89

$$$$
>  <Compound>
NS(=O)(=O)OC[C@@H]1C[C@@H](n2ccc3c(N[C@H]4CCc5ccccc54)ncnc32)C[C@@H]1O

>  <Unit Abbrev>
%

>  <Observed Measurement>
88

$$$$
>  <Compound>
c1ccc2c(-c3cnn4cc(-c5ccc(N6CCNCC6)cc5)cnc34)ccnc2c1

>  <Unit Abbrev>
%

>  <Observed Measurement>
26

$$$$
>  <Compound>
NC(=O)c1cc2c(-c3cccc(-c4ccccc4)c3)cnc(N)c2s1

>  <Unit Abbrev>
%

>  <Observed Measurement>
47

$$$$
>  <Compound>
CCNc1nc(Nc2cc(F)c(C(=O)N3CCOCC3)cc2OC)ncc1C(F)(F)F

>  <Unit Abbrev>
%

>  <Observed Measurement>
17

$$$$
>  <Compound>
COc1cc2ncn(-c3cc(OCc4ccccc4S(C)(=O)=O)c(C#N)s3)c2cc1OC

>  <Unit Abbrev>
%

>  <Observed Measurement>
17

$$$$
>  <Compound>
NCC(=O)Nc1ccc(-n2nc(C(F)(F)F)cc2-c2ccc3c(ccc4ccccc43)c2)cc1

>  <Unit Abbrev>
%

>  <Observed Measurement>
83

$$$$
>  <Compound>
Oc1ccc(/C=C/c2cc(O)cc(O)c2)cc1

>  <Unit Abbrev>
%

>  <Observed Measurement>
79

$$$$
>  <Compound>
Cc1ccc2c(c1)C(=O)[C@@]1(O)CCN(c3ccccc3)C1=N2

>  <Unit Abbrev>
%

>  <Observed Measurement>
94

$$$$
>  <Compound>
CCOC(=O)c1ccc(N2NC(=O)/C(=C/c3ccc([N+](=O)[O-])o3)C2=O)cc1

>  <Unit Abbrev>
%

>  <Observed Measurement>
100

$$$$
>  <Compound>
Nc1cccc2c1CN(C1CCC(=O)NC1=O)C2=O (stereo unspecified)

>  <Unit Abbrev>
%

>  <Observed Measurement>
102

$$$$
>  <Compound>
O=S(=O)(c1ccc(F)c2nonc12)N1CCN(c2ncc(C(F)(F)F)cc2Cl)CC1

>  <Unit Abbrev>
%

>  <Observed Measurement>
85

$$$$
>  <Compound>
NC(=O)c1c(NC(=O)C2CC2)sc2c1CCCC2

>  <Unit Abbrev>
%

>  <Observed Measurement>
107

$$$$
>  <Compound>
N#Cc1c(C2CCNCC2)cc(-c2c(O)cccc2OCC2CC2)nc1N

>  <Unit Abbrev>
%

>  <Observed Measurement>
86

$$$$
>  <Compound>
Cc1ccc(Sc2cnc(Nc3cccc(Br)n3)s2)cc1C(=O)N1CCN(C(=O)CN)CC1

>  <Unit Abbrev>
%

>  <Observed Measurement>
93

$$$$
>  <Compound>
NC(=O)c1ccc(-c2ccc(Oc3cncc4sc(-c5nn[nH]n5)cc34)cc2)cc1

>  <Unit Abbrev>
%

>  <Observed Measurement>
63

$$$$
>  <Compound>
C=CC(=O)N1CCC[C@@H](n2nc(-c3ccc(Oc4ccccc4)cc3)c3c(N)ncnc32)C1

>  <Unit Abbrev>
%

>  <Observed Measurement>
90

$$$$
>  <Compound>
CC(C)C[C@H](NC(=O)CNC(=O)c1cc(Cl)ccc1Cl)B1OC(=O)CC(CC(=O)O)(C(=O)O)O1 (stereo partly specified)

>  <Unit Abbrev>
%

>  <Observed Measurement>
81

$$$$
>  <Compound>
O=C(NOC[C@H](O)CO)c1ccc(F)c(F)c1Nc1ccc(I)cc1Cl

>  <Unit Abbrev>
%

>  <Observed Measurement>
101

$$$$
>  <Compound>
Oc1ccc2ccccc2c1SSc1c(O)ccc2ccccc12

>  <Unit Abbrev>
%

>  <Observed Measurement>
77

$$$$
>  <Compound>
CCn1c(-c2nonc2N)nc2cncc(CNC3CCNCC3)c21

>  <Unit Abbrev>
%

>  <Observed Measurement>
78

$$$$
